Ref: patent US7138361B2

Tested on: giant foxtail (Setaria faberii)
measurement.notes: Test C postemergence
Assay type: in vivo
cond: Rate 62 g/ha, scale 0 to 100
From the text: […]
measured.parameter: Plant response rating, Foxtail, Giant

> print(dat)
                                   molecule  reported.value
1  CCCC(C)c1ccn(C2CCN(c3ccc(Cl)c(OC)c3)C2=O)n1 (stereo not shown) [Compound 121]               0
2  COc1cc(N2CCC(n3ccc(C(C)C)n3)C2=O)ccc1C (stereo not shown) [Compound 85]              20
3  CCC(CC)c1ccn(C2CCN(c3ccc(Br)c(OC)c3)C2=O)n1 (stereo not shown) [Compound 143]              30
4  CCC(CC)c1ccn(C2OCN(c3cccc(OC(F)F)c3)C2=O)n1 (stereo not shown) [Compound 131]              20
5  CCC(CC)c1ccn(C2CCN(c3ccc(C)c(OC)c3)C2=O)n1 (stereo not shown) [Compound 81]               0
6  Cc1ccc(N2CCC(n3ccc(C(C)(C)C)n3)C2=O)cc1OCCCl (stereo not shown) [Compound 109]               0
7  CCC(CC)c1ccn(C2OCN(c3cccc(OC(F)(F)F)c3)C2=O)n1 (stereo not shown) [Compound 68]               0

----------
System: corn (Zea mays)
measurement.notes: Test C preemergence
Format: in vivo
cond: Rate 62 g/ha; scale 0 to 100, 0 no effect, 100 complete control
// values below are reported Plant response rating, Corn
measured.parameter: Plant response rating, Corn

> print(dat)
                                   compound           measured.parameter  reported.value
1  CC(C)(C)c1ccn(C2CCN(c3cccc(Br)c3)C2=O)n1 (centres unmarked) [Compound 33]  Plant response rating, Corn               0
2  CCOC(=O)c1cccc(N2CCC(n3ccc(C(C)(C)C)n3)C2=O)c1 (centres unmarked) [Compound 72]  Plant response rating, Corn               0
3  O=C1C(n2ccc(C3CCCCC3)n2)OCN1c1cccc(C(F)(F)F)c1 (centres unmarked) [Compound 51]  Plant response rating, Corn               0
4  CC(C)(C)c1ccn(C2CCN(c3cccc(OC(F)F)c3)C2=O)n1 (centres unmarked) [Compound 76]  Plant response rating, Corn              20
5  CC(C)(C)c1ccn(C2CCN(c3cccc(Cl)c3)C2=O)n1 (centres unmarked) [Compound 43]  Plant response rating, Corn               0

----------
Tested on: rice (Oryza saliva)
measurement.notes: Test B preemergence
Type: in vivo
cond: Preemergence, Rate 500 g/ha; scale 0 to 100, 0 no effect, 100 complete control
measured.parameter: Plant response rating, Rice

> print(dat)
                                   molecule  reported.value
1  CC(C)Oc1ccn(C2CCN(c3cccc(C(F)(F)F)c3)C2=O)n1 (stereo not drawn)              50
2  CC(C)(C)c1ccn(C2OCN(c3cccc(OC(F)F)c3)C2=O)n1 (stereo not drawn)             100
3  CCCOc1cc(N2CCC(n3ccc(C(C)(C)C)n3)C2=O)ccc1C (stereo not drawn)               0
4  O=C1C(n2ccc(C3CCCCC3)n2)SCN1c1cccc(OC(F)(F)F)c1 (stereo not drawn)               0
5  Cc1cccc(N2CCC(n3ccc(C(C)(C)C)n3)C2=O)c1 (stereo not drawn)             100
6  O=C1C(n2ccc(C3CCC3)n2)OCN1c1cccc(C(F)(F)F)c1 (stereo not drawn)               0
7  CCC(CC)c1ccn(C2CCN(c3ccc(F)c(C(F)(F)F)c3)C2=O)n1 (stereo not drawn)               0
8  CCCC(C)c1ccn(C2CCN(c3cccc(OCC)c3)C2=O)n1 (stereo not drawn)              50
9  COc1cc(N2CCC(n3ccc(C(C)C)n3)C2=O)ccc1Cl (stereo not drawn)              30

----------
Test system: wheat (Triticum aestivum)
measurement.notes: Test B postemergence
Type: in vivo
cond: Rate 125 g/ha, scale 0 to 100, 0 no effect, 100 complete control
// values below are reported Plant response rating, Wheat
measured.parameter: Plant response rating, Wheat

> print(dat)
                                   compound            measured.parameter  reported.value
1  Cc1cccc(N2CCC(n3ccc(C(C)(C)C)n3)C2=O)c1 (stereo not drawn)  Plant response rating, Wheat              40
2  CCC(CC)c1ccn(C2CCN(c3ccc(Br)c(OC)c3)C2=O)n1 (stereo not drawn)  Plant response rating, Wheat               0
3  CCOc1cccc(N2CCC(n3ccc(C(C)C)n3)C2=O)c1 (stereo not drawn)  Plant response rating, Wheat               0
4  CC(C)OC(=O)c1cccc(N2CCC(n3ccc(C(C)(C)C)n3)C2=O)c1 (stereo not drawn)  Plant response rating, Wheat               0
5  COc1cc(N2CCC(n3ccc(C(C)(C)C)n3)C2=O)ccc1Cl (stereo not drawn)  Plant response rating, Wheat              30
6  Cc1cc(C)nc(N2CCC(n3ccc(C(C)(C)C)n3)C2=O)c1 (stereo not drawn)  Plant response rating, Wheat               0

----------
// values below are reported Plant response rating, Foxtail, Giant
System: giant foxtail (Setaria faberii)
measurement.notes: Test B postemergence
Assay type: in vivo
cond: Rate 500 g/ha, scale 0 to 100, 0 is no effect, 100 is complete control, 13 to 15 days
measured.parameter: Plant response rating, Foxtail, Giant

> print(dat)
                                    compound                system.under.test  reported.value
 1  Cc1ccn(C2SCN(c3cccc(C(F)(F)F)c3)C2=O)n1 (stereo not shown)  giant foxtail (Setaria faberii)               0
 2  CC(C)c1ccn(C2SCN(c3cccc(C(F)(F)F)c3)C2=O)n1 (stereo not shown)  giant foxtail (Setaria faberii)              80
 3  Cc1ccc(N2CCC(n3ccc(C(C)(C)C)n3)C2=O)cc1C(F)(F)F (stereo not shown)  giant foxtail (Setaria faberii)               0
 4  Cc1ccc(N2CCC(n3ccc(C(C)(C)C)n3)C2=O)cc1Cl (stereo not shown)  giant foxtail (Setaria faberii)               0
 5  CC(C)Oc1cccc(N2CCC(n3ccc(C(C)C)n3)C2=O)c1 (stereo not shown)  giant foxtail (Setaria faberii)               0
 6  Cc1cccc(N2CCC(n3ccc(C(C)(C)C)n3)C2=O)c1 (stereo not shown)  giant foxtail (Setaria faberii)               0
 7  CC(C)(C)c1ccn(C2CCN(c3cccc(C#N)c3)C2=O)n1 (stereo not shown)  giant foxtail (Setaria faberii)               0
 8  CCCC(C)c1ccn(C2SCN(c3cccc(OC(F)(F)F)c3)C2=O)n1 (stereo not shown)  giant foxtail (Setaria faberii)              40
 9  CC(C)(C)c1ccn(C2CCN(c3cc(Cl)cc(Cl)c3)C2=O)n1 (stereo not shown)  giant foxtail (Setaria faberii)               0
10  Cc1ccc(N2CCC(n3ccc(C(C)(C)C)n3)C2=O)cc1OC(F)F (stereo not shown)  giant foxtail (Setaria faberii)               0

----------
Tested on: cocklebur (Xanthium strumarium)
measurement.notes: Test C preemergence
Assay type: in vivo
cond: preemergence; Rate 250 g/ha; scale 0 to 100, 0 no effect, 100 complete control
// values below are reported Plant response rating, Cocklebur
measured.parameter: Plant response rating, Cocklebur

> print(dat)
                                   compound                system.under.test  reported.value
1  CCOc1cc(N2CCC(n3ccc(C(C)(C)C)n3)C2=O)ccc1C (stereo not drawn) [Compound 106]  cocklebur (Xanthium strumarium)             100
2  CC(C)(C)c1ccn(C2CCN(c3cccc([S+]([O-])C(F)(F)F)c3)C2=O)n1 (stereo not drawn) [Compound 101]  cocklebur (Xanthium strumarium)              50
3  CCCC(C)c1ccn(C2CCN(c3ccc(Cl)c(OC)c3)C2=O)n1 (stereo not drawn) [Compound 121]  cocklebur (Xanthium strumarium)              50
4  CCC(CC)c1ccn(C2CCN(c3ccc(F)c(C(F)(F)F)c3)C2=O)n1 (stereo not drawn) [Compound 144]  cocklebur (Xanthium strumarium)              60
5  COc1cc(N2CCC(n3ccc(C(C)(C)C)n3)C2=O)ccc1Cl (stereo not drawn) [Compound 117]  cocklebur (Xanthium strumarium)              50
6  CCCC(C)c1ccn(C2OCN(c3cccc(OC(F)(F)F)c3)C2=O)n1 (stereo not drawn) [Compound 91]  cocklebur (Xanthium strumarium)               0
7  COc1cc(N2CCC(n3ccc(C(C)C)n3)C2=O)ccc1Cl (stereo not drawn) [Compound 120]  cocklebur (Xanthium strumarium)              30
8  CC(C)c1cccc(N2CCC(n3ccc(C(C)(C)C)n3)C2=O)c1 (stereo not drawn) [Compound 111]  cocklebur (Xanthium strumarium)               0
9  CCCC(C)c1ccn(C2SCN(c3cccc(OC(F)(F)F)c3)C2=O)n1 (stereo not drawn) [Compound 90]  cocklebur (Xanthium strumarium)               0
